All figures here come from ChEMBL document CHEMBL5058577.

# Test system: Fibroblast
# protocol-summary: Multiplex assay against human fibroblast
# Assay type: toxicity, cell-based
# assay-setup: 24 h, 10 µM, compound concentration 10 uM, replicate 2
experimental-endpoint: Population Tubulin-Different-Phenotype (%)
Dear colleague, please return just the value in %, with no unit written.

Use these answered entries as a reference point.
Please state recorded Population Tubulin-Different-Phenotype (%) (tested on Fibroblast) of `CCCCC1=NC2(CCCC2)C(=O)N1Cc1ccc(-c2ccccc2-c2nnn[nH]2)cc1` 60

Moving on to `CCCCC(=O)N(Cc1ccc(-c2ccccc2-c2nnn[nH]2)cc1)[C@H](C(=O)O)C(C)C` 65

Moving on to `COc1cccc2c1c(NS(=O)(=O)c1ccc(Cl)s1)nn2Cc1cccc(CNC(=O)C(C)(C)O)c1` 48

Others:
Please state recorded Population Tubulin-Different-Phenotype (%) (tested on Fibroblast) of `NCCc1cn(S(=O)(=O)c2c(Cl)nc3sccn23)c2ccccc12.O=C(O)C(=O)O` 81

Moving on to Cc1sc2c(c1C)C(c1ccc(Cl)cc1)=N[C@@H](CC(=O)NCCCCCCCCNC(=O)COc1cccc3c1C(=O)N(C1CCC(=O)NC1=O)C3=O)c1nnc(C)n1-2 (some centres undefined) 68

Moving on to CCCCCC(O)/C=C/[C@H]1C(=O)CC(O)C1C/C=C\CCCC(=O)O (some centres undefined) 29
